measurement target: TRK1 (Homo sapiens, UniProt P04629)
Sequence (P04629 33-796): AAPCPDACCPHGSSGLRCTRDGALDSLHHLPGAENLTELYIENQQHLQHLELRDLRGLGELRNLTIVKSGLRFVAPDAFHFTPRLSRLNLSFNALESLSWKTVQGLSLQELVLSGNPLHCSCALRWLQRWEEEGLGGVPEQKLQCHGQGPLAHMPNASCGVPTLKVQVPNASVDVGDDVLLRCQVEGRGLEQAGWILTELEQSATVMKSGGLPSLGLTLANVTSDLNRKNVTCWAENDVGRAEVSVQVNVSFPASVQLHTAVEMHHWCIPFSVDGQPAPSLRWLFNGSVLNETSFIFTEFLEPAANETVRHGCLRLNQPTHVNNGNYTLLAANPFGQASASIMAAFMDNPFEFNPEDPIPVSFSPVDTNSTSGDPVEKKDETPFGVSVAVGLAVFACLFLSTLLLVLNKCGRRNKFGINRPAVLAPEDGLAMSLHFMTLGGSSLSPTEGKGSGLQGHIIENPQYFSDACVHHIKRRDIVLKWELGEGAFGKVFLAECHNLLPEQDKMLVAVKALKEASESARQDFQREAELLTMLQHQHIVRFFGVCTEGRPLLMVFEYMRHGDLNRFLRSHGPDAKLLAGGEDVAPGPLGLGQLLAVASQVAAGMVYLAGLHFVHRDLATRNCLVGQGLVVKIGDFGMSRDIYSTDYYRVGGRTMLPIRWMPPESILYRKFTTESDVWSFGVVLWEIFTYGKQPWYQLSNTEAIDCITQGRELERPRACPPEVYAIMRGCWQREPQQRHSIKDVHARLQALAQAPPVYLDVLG
endpoint: pIC50
Reminder that pIC50 is minus the log10 of a molar concentration.

Provide measured pIC50 on TRK1 (Homo sapiens, UniProt P04629) for COc1c2c(nn1C)CN(C)C(=O)c1ccc(F)cc1[C@H]1CCCN1c1cc-2cnc1N please.
8.40

* * *

measurement target: ALK (Homo sapiens)
Construct: similar enzymatic potency was observed against full length ALK and ALK mutants
Sequence (Q9UM73 19-1620): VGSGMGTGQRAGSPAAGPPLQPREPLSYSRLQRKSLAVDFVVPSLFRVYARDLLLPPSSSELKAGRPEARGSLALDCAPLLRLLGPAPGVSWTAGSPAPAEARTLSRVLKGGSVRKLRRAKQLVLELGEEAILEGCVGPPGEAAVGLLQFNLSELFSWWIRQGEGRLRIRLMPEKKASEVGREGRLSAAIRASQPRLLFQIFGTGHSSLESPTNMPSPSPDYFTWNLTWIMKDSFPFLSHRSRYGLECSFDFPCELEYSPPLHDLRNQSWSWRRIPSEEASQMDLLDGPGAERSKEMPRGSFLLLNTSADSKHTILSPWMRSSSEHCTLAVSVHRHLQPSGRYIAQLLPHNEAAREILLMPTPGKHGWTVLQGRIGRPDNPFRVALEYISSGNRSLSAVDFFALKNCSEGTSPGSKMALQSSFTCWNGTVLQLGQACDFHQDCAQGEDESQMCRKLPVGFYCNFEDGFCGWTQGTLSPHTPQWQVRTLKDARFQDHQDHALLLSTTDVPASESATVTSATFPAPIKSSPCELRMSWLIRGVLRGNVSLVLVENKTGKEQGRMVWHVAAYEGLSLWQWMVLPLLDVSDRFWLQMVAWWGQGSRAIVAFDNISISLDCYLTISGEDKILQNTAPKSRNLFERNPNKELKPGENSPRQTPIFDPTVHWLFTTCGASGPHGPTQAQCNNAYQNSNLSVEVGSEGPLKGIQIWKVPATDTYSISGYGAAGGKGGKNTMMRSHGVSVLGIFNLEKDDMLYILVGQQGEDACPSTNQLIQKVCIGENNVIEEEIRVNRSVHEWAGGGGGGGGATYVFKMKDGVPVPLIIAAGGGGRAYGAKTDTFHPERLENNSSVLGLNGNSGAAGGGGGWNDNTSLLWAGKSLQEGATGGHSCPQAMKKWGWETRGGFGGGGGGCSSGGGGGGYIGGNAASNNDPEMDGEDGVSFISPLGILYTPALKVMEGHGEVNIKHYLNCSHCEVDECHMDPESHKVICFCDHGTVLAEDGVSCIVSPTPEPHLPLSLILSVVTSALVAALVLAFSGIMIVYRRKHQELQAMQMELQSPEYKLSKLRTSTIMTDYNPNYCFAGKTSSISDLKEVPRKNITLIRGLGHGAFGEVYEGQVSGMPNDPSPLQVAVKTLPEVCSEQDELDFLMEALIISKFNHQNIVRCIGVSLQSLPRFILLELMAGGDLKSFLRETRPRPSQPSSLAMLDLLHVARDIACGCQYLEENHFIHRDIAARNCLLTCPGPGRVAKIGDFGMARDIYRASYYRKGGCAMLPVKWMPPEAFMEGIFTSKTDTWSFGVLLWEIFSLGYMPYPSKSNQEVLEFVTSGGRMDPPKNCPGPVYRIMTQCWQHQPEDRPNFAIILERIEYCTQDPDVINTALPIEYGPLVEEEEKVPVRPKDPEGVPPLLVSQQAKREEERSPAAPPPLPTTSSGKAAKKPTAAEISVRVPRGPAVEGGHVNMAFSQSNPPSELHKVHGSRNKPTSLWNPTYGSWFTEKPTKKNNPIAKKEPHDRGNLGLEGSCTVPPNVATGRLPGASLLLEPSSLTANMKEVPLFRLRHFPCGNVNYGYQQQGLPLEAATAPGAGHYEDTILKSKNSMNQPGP
procedure details: Invitrogen Z'-lyte or LanthaScreen kinase IC50 assay
Source text: The IC50 values were generated from Invitrogen™'s Z'-lytet™ or LanthaScreen™ assays.
endpoint: pIC50
Reminder that pIC50 is minus the log10 of a molar concentration.

Assign pIC50 to the following record: Cn1cc2c(n1)CN(C1CC1)C(=O)c1ccc(F)cc1[C@H]1CCCN1c1cc-2cnc1N
8.22

Assign pIC50 to the following record: CN1Cc2nn(C)cc2-c2cnc(N)c(c2)N2CCC[C@@H]2c2cc(F)ccc2C1=O
7.92

Assign pIC50 to the following record: COc1c2c(nn1C)CN(C)C(=O)c1ccc(F)cc1[C@H]1CCCN1c1cc-2cnc1N
8.05

Assign pIC50 to the following record: Cc1c2c(nn1C)CN(C)C(=O)c1ccc(F)cc1[C@H]1CCCN1c1cc-2cnc1N
8.30

Assign pIC50 to the following record: CN1Cc2nn(C)c(C#N)c2-c2cnc(N)c(c2)N2CCC[C@@H]2c2cc(F)ccc2C1=O
8.15

* * *

endpoint: pIC50
Reminder that pIC50 is minus the log10 of a molar concentration.

Provide measured pIC50 on TRK2 (Homo sapiens, UniProt Q16620) for COc1c2c(nn1C)CN(C)C(=O)c1ccc(F)cc1[C@H]1CCCN1c1cc-2cnc1N [Compound I-1b] please.
Sequence (Q16620 32-822): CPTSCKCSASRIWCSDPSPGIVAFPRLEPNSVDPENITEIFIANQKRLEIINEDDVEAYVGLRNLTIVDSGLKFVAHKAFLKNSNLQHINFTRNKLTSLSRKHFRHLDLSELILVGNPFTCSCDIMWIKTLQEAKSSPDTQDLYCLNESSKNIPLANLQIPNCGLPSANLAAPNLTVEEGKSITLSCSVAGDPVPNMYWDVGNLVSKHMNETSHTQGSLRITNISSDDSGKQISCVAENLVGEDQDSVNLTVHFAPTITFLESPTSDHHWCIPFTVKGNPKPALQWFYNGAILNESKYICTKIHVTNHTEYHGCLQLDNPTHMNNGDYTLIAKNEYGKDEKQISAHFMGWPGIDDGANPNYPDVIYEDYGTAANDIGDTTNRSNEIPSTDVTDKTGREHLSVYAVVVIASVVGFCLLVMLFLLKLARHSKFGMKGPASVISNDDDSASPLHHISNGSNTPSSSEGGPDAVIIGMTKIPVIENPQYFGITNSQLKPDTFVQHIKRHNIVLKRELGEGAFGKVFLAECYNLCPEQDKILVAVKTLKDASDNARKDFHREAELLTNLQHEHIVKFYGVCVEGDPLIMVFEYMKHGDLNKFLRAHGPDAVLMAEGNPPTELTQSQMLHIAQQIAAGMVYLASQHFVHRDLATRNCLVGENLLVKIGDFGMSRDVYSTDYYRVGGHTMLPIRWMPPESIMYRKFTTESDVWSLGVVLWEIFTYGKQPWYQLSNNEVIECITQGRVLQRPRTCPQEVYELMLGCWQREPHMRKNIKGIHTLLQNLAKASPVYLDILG
9.05

* * *

Can you tell me pIC50 for the items I'm about to list?
measurement target: CD74-NTRK1 Ba/F3 cells (Homo sapiens)
Construct: the other entry of the earlier key: CD74 (P04233, HLA class II histocompatibility antigen gamma chain)
procedure details: Cell viability assay (CellTiter-Glo, 72 hr)
assay setup: 72 hr
Reminder that pIC50 is minus the log10 of a molar concentration.

Assign pIC50 to the following record: CN1Cc2nn(C)cc2-c2cnc(N)c(c2)N2CCC[C@@H]2c2cc(F)ccc2C1=O
9.88

Assign pIC50 to the following record: C[C@H]1Oc2cc(cnc2N)-c2c(nn(C)c2C#N)CN(C)C(=O)c2ccc(F)cc21 [Lorlatinib, reference compound]
7.17

* * *

measurement target: Ba/F3 EML4-ALK L1196M cells (Homo sapiens, UniProt Q9UM73, L1196M)
Construct: the other entry of the earlier key: EML4 (Q9HC35, Echinoderm microtubule-associated protein-like 4)
Sequence (Q9UM73 1058-1620 L1196M limits assumed): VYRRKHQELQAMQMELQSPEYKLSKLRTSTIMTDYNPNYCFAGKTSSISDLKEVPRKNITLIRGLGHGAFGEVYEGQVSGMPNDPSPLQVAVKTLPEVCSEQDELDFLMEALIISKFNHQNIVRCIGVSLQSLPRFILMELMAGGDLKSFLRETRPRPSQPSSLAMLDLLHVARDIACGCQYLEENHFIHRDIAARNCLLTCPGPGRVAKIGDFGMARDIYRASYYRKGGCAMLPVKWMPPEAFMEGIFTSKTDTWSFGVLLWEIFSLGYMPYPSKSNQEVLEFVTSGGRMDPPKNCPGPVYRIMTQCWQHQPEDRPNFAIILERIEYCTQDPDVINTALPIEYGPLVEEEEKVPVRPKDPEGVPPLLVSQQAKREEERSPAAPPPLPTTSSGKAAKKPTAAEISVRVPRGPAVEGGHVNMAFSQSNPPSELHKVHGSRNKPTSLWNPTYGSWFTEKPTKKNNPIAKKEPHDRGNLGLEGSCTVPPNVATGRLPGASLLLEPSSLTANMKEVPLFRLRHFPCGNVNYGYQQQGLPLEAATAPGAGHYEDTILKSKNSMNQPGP
procedure details: Cell viability assay (CellTiter-Glo, 72 hr)
endpoint: IC50 (nM)
Respond numerically; units are nM and should not be typed.

Assign IC50 to the following record: CN1Cc2nn(C)cc2-c2cnc(N)c(c2)N2CCC[C@@H]2c2cc(F)ccc2C1=O
144

* * *

measurement target: Ba/F3 EML4-ALK G1202R cells (Homo sapiens, UniProt Q9UM73, G1202R)
Construct: expressed in transfected cells; host or cells: Ba/F3; the other entry of the earlier key: EML4 (Q9HC35, Echinoderm microtubule-associated protein-like 4)
Sequence (Q9UM73 1058-1620 G1202R limits assumed): as the sequence (Q9UM73 1058-1620 L1196M limits assumed) above, with M139L, G145R counted along it
procedure details: Cell viability assay (CellTiter-Glo, 72 hr)
Assay type: cell-based
endpoint: IC50 (nM)
Respond numerically; units are nM and should not be typed.

Assign IC50 to the following record: CN1Cc2nn(C)cc2-c2cnc(N)c(c2)N2CCC[C@@H]2c2cc(F)ccc2C1=O [Compound I-1a]
1220
